Recorded pIC50 for the following compounds
Molecular target: cloned human 5-HT1A receptors (Homo sapiens)
Sequence (P08908 1-422): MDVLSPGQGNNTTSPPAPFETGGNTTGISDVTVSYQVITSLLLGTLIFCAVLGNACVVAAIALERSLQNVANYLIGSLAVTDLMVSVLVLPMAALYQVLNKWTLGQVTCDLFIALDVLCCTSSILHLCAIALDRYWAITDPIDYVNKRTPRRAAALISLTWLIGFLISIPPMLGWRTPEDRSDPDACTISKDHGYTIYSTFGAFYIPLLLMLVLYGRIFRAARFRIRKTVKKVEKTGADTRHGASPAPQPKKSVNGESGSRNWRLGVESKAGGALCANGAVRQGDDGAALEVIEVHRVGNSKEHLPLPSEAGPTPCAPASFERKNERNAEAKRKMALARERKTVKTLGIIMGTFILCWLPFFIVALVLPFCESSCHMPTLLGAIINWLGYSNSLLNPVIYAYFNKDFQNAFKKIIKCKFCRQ
Field pIC50 (float): negative decimal logarithm of the concentration in molar.

Compound	Study target	Value type	Numeric value
Cc1nc2ccc3c(c2o1)OC(CN1C2CCC1CC(O)(c1ccc4ccccc4c1)C2)CO3 (centres unmarked)	cloned human 5-HT1A receptors (Homo sapiens)	pIC50	7.57

For Cc1nc2ccc3c(c2o1)OC(CN1C2CCC1CC(O)(c1ccccc1)C2)CO3 (centres unmarked) , what is its reported pIC50?
7.28
